- target-desc: affinity purified β2GPI-dependent antiphospholipid antibody
- assay-remarks: Competitive inhibition ELISA: recombinant β2GPI proteins compete for antibody binding to coated full length recombinant β2GPI
- Parameters: species or system human
- assay-conditions: Ab 7008; read-out: 50% (concentration to give 50% inhibition)
measured-property: IC50

Request: For the molecule shown here, --345: recombinant β2GPI deletion mutant with domains 3, 4, 5 (protein) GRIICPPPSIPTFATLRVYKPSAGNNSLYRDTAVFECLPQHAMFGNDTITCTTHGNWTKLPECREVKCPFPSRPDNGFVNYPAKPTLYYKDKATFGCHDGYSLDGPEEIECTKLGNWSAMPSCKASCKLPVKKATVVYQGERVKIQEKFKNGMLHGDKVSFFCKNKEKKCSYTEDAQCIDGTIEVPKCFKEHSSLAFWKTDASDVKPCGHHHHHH , give the reported IC50.
Response: > 50 µM
